Sourced from patent US10143681B2

- System: Human plasma (intrinsic coagulation cascade)
- procedure_details: Activated Partial Thromboplastin Time (aPTT) Assay
- measurement_context: concentration that causes a 50% (1.5×) increase of clot time over vehicle
# note: exactly 1 µM is not below, so it is F; use T for aPTT (1.5x) strictly under it

INSERT INTO results (compound, tested_on, category_label) VALUES
  ('O=C(O)c1ccc(NC(=O)[C@H](CC2CC2)c2ccc(-c3c(OCC4CC4)ccc(Cl)c3F)c[n+]2[O-])cc1', 'Human plasma (intrinsic coagulation cascade)', 'F'),
  ('O=C(O)c1ccc(NC(=O)C(CC2CC2)c2ccc(-c3cc(Cl)ccc3C(F)F)c[n+]2[O-])cc1 (single isomer, unassigned) [Example 28]', 'Human plasma (intrinsic coagulation cascade)', 'F'),
  ('O=C(O)c1ccc(NC(=O)C(CC2CC2(F)F)c2ccc(-c3c(C(F)F)ccc(Cl)c3F)c[n+]2[O-])cc1 (single isomer, unassigned)', 'Human plasma (intrinsic coagulation cascade)', 'T'),
  ('O=C(O)c1ccc(NC(=O)C(CC2CC2CF)c2ccc(-c3c(C(F)F)ccc(Cl)c3F)c[n+]2[O-])cc1 (single isomer, unassigned) [Example 94]', 'Human plasma (intrinsic coagulation cascade)', 'T'),
  ('CC1CCC1CC(C(=O)Nc1ccc(C(=O)O)cc1)c1ccc(-c2c(OC(F)F)ccc(Cl)c2F)c[n+]1[O-] (single isomer, unassigned)', 'Human plasma (intrinsic coagulation cascade)', 'F');

Does the reported aPTT (1.5x) of the following compound sit strictly below 1 µM? C[C@@H]1C[C@H]1C[C@@H](C(=O)Nc1ccc(C(=O)O)cc1)c1ccc(-c2c(OC(F)F)ccc(Cl)c2F)c[n+]1[O-] (single isomer, unassigned)
F
